settings: 308.15 K; 101 kPa; Liquid
EXPERIMENTAL ENDPOINT: mass density (kg/m3)

> print(dat)
                                   compound  quantitative.result
1        Cc1ccc(C)cc1 [1,4-dimethylbenzene]                  848
2             CC1CCCCC1 [methylcyclohexane]                756.3
3                        c1ccccc1 [benzene]                862.7
4                      COc1ccccc1 [anisole]                979.8
5  Cc1cc(C)cc(C)c1 [1,3,5-trimethylbenzene]                  853
6                       Cc1ccccc1 [toluene]                852.9

----------
conditions: 298.15 K; 101 kPa; Liquid
Under this convention, label 1 denotes mass density strictly below 900 kg/m3 and label 0 denotes mass density at or above 900 kg/m3.

> print(dat)
   compound.structure.string    label
1                  Cc1ccccc1  label 1
2                  CC1CCCCC1  label 1
3               Cc1ccc(C)cc1  label 1
4            Cc1cc(C)cc(C)c1  label 1
5                 COc1ccccc1  label 0

----------
test: refractive index (Na D-line) (dimensionless); conditions: 308.15 K; 101.33 kPa; Liquid
Below, each entry is listed alongside its reported refractive index.
EXPERIMENTAL ENDPOINT: refractive index

> print(dat)
                                   molecule  quantitative.result
1                        c1ccccc1 [benzene]               1.4903
2        Cc1ccc(C)cc1 [1,4-dimethylbenzene]               1.4867
3                      COc1ccccc1 [anisole]               1.5088
4  Cc1cc(C)cc(C)c1 [1,3,5-trimethylbenzene]               1.4913
5             CC1CCCCC1 [methylcyclohexane]               1.4163
6                       Cc1ccccc1 [toluene]               1.4874

----------
Below, each entry is listed alongside its reported refractive index.
test: refractive index (Na D-line) (dimensionless); details: 298.15 K; 101.33 kPa; Liquid
EXPERIMENTAL ENDPOINT: refractive index

> print(dat)
   compound.structure.string  experimental.endpoint  quantitative.result
1                  Cc1ccccc1       refractive index               1.4931
2            Cc1cc(C)cc(C)c1       refractive index                1.496
3                   c1ccccc1       refractive index               1.4971
4                 COc1ccccc1       refractive index               1.5136
5               Cc1ccc(C)cc1       refractive index               1.4926
6                  CC1CCCCC1       refractive index               1.4217
